Experiment: Ocular tissue concentrations (aqueous humor, vitreous humor, iris, retina, choroid, cornea) after topical ocular, subcutaneous and intravitreal administration
Assay type: in vivo, New Zealand White rabbits
Details: New Zealand White, rabbit, vitreous humor, subcutaneous, 5 mg/kg, Group 3 subcutaneous 5 mg/kg; 0.5 hr; read-out: vitreous humor Conc., individual eyes (OD, OS)

# MOLECULE, UNIT, concentration at 0.5 hr
rows = [
    ("COC(=O)N[C@@H](Cc1ccccc1)C(=O)N[C@@H](Cc1ccc(NS(=O)(=O)O)cc1)c1csc(-c2cccs2)n1 [Compound 1 free acid]", "ng/mL", 0.227),
]

----------
Test: Ocular tissue concentrations (aqueous humor, vitreous humor, iris, retina, choroid, cornea) after topical ocular, subcutaneous and intravitreal administration
Format: in vivo, New Zealand White rabbits
Conditions: New Zealand White, rabbit, choroid homogenate, subcutaneous, 5 mg/kg/dose, TABLE 16: Choroid homogenate, 1 hr, OS; free acid, subcutaneous 5 mg/kg/dose, Group 3; read-out: Choroid Conc. (ng/mL) OS

# COMPOUND, concentration at 1 h
data = [
    ("COC(=O)N[C@@H](Cc1ccccc1)C(=O)N[C@@H](Cc1ccc(NS(=O)(=O)O)cc1)c1csc(-c2cccs2)n1 [Compound 1]", "8.01 ng/mL"),
]

----------
Assay: Plasma concentrations and pharmacokinetic parameters after topical ocular, subcutaneous and intravitreal administration
Assay type: in vivo, New Zealand White rabbits
Settings: New Zealand White, rabbit, plasma, sc, 5 mg/kg; subcutaneous 5 mg/kg/dose, suspension

# COMPOUND, AUC(0-inf)
rows = [
    ("COC(=O)N[C@@H](Cc1ccccc1)C(=O)N[C@@H](Cc1ccc(NS(=O)(=O)O)cc1)c1csc(-c2cccs2)n1 [Compound 1 free acid]", "1200 ng·h/mL"),
]

----------
Assay: Ocular tissue concentrations (aqueous humor, vitreous humor, iris, retina, choroid, cornea) after topical ocular, subcutaneous and intravitreal administration
Type: in vivo, New Zealand White rabbits
Details: New Zealand White, rabbit, iris homogenate, subcutaneous, 5 mg/kg/dose, TABLE 16: Iris homogenate, 1 hr, OS; free acid, subcutaneous 5 mg/kg/dose, Group 3; read-out: Iris Conc. (ng/mL) OS
EXPERIMENTAL_READOUT: concentration at 1 h (ng/mL)

# LINE_NOTATION, UNIT, NUMBER
records = [
    ("COC(=O)N[C@@H](Cc1ccccc1)C(=O)N[C@@H](Cc1ccc(NS(=O)(=O)O)cc1)c1csc(-c2cccs2)n1", "ng/mL", 4.33),
]

----------
Assay: Ocular tissue concentrations (aqueous humor, vitreous humor, iris, retina, choroid, cornea) after topical ocular, subcutaneous and intravitreal administration
Assay type: in vivo, New Zealand White rabbits
Conditions: New Zealand White, rabbit, choroid, subcutaneous, 5 mg/kg/dose, Choroid, 1 hr, OD; sodium salt, subcutaneous 5 mg/kg/dose, Group 2; read-out: Choroid Conc. (ng/g) OD

# LINE_NOTATION, concentration at 1 h (ng/g)
rows = [
    ("COC(=O)N[C@@H](Cc1ccccc1)C(=O)N[C@@H](Cc1ccc(NS(=O)(=O)O)cc1)c1csc(-c2cccs2)n1", 320),
]

----------
Assay: Ocular tissue concentrations (aqueous humor, vitreous humor, iris, retina, choroid, cornea) after topical ocular, subcutaneous and intravitreal administration
Format: in vivo, New Zealand White rabbits
Details: New Zealand White, rabbit, retina, other: intravitreal, 2.5 mg/eye, Retina, 48 hr; sodium salt, intravitreal 2.5 mg/eye, Group 4; read-out: Retina Avg.

# COMPOUND, concentration at 48 h / ng/g
rows = [
    ("COC(=O)N[C@@H](Cc1ccccc1)C(=O)N[C@@H](Cc1ccc(NS(=O)(=O)O)cc1)c1csc(-c2cccs2)n1 [Compound 1]", 72600),
]
